Experiment: qHTS assay to identify small molecule antagonists of the retinoid-related orphan receptor gamma (ROR-gamma) signaling pathway - cell viability counter screen (AID 1159520); also: nearly all actives have a fitted effect of over 50% in size
Details: Tet-on RORgamma CHO cells viability, ATP luminescence, 16 h; series mostly up to 92.4 µM
Inconclusive results are not listed. Active and inactive are the calls of the source. Calls follow the shape of the dose curve; as a rule, active = well fitted cell-killing curve with a large enough effect in the repeat runs; inconclusive = weak or mixed curves, or effect the other way; inactive = no such curve, though single readings can be large or run the other way.
Outcome codes: active, inactive

compound=COC[C@H](C)N(C(=O)CCl)c1c(C)csc1C class_name=inactive
compound=CC(C)Oc1cccc(NC(=O)c2ccccc2C(F)(F)F)c1 class_name=inactive
compound=CC1(C)CN=C(NN=C(/C=C/c2ccc(C(F)(F)F)cc2)/C=C/c2ccc(C(F)(F)F)cc2)NC1 class_name=active
compound="CC1CCC(C(C)C)C(OC(=O)c2ccccc2N)C1 (stereo unspecified)" class_name=active
compound=CN(C)c1ccc(N=Nc2ccccc2)cc1 class_name=inactive
compound=COCC(=O)N(c1c(C)cccc1C)[C@H](C)C(=O)OC class_name=inactive

* * *

Assay: qHTS assay to identify aromatase inhibitors - cell viability counter screen (AID 743084);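 also: cells stimulated with testosterone during compound exposure; nearly all actives have a fitted effect of over 55% in size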
Settings: MCF-7 aro ERE viability, CellTiter-Fluor, 24 h; series mostly up to 70.3 µM
Inconclusive results are not listed. Activity calls are given as the source filed them. Calls follow the shape of the dose curve; as a rule, active = well fitted cell-killing curve with a large enough effect in the repeat runs; inconclusive = weak or mixed curves, or effect the other way; inactive = no such curve, though single readings can be large or run the other way.
Classes used: active, inactive

molecule="CC(C)C1CCC(Cc2ccc(Cl)cc2)C1(O)Cn1cncn1 (stereo not given)" class_name=active
molecule="COC12CC[C@@]3(C[C@@H]1C(C)(O)C(C)(C)C)[C@H]1Cc4ccc(O)c5c4[C@@]3(CCN1CC1CC1)[C@H]2O5 (stereo not given in full)" class_name=active
molecule=C[C@@H]1O[C@@H](O[C@@H]2C=C3CC[C@@H]4[C@H](CC[C@]5(C)[C@@H](c6ccc(=O)oc6)CC[C@]45O)[C@@]3(C)CC2)[C@H](O)[C@H](O)[C@H]1O class_name=inactive
molecule=CC1(C)[C@H](C(=O)O[C@H](C#N)c2cccc(Oc3ccccc3)c2)[C@@H]1/C=C(\Cl)C(F)(F)F class_name=inactive
molecule=CC(C)Oc1cccc(NC(=O)c2ccccc2C(F)(F)F)c1 class_name=inactive
molecule=CC(C)(O)c1cnn2c(-c3ccc(F)c(-c4c(F)cccc4C#N)c3)cnc2n1 class_name=inactive
molecule=Cc1cc(C(C)(C)c2cc(C)c(O)c(C)c2)cc(C)c1O class_name=active
molecule="CNC(C)Cc1ccc2c(c1)OCO2 (stereo not given)" class_name=inactive
molecule="COc1ccc(OC)c(CC(C)N)c1 (stereo not given)" class_name=inactive
molecule=FC(Cl)(Cl)Cl class_name=inactive

* * *

Assay: qHTS assay to identify small molecule antagonists of the estrogen related receptor (ERR) signaling pathway - cell viability counter screen (AID 1224818);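 also: viability measured after 17.5 h of compound exposure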
Details: ERR reporter cell line viability counter screen; series mostly up to 92.2 µM
Inconclusive results are not listed. Activity calls are given as the source filed them. Calls come from the whole dose curve; as a rule, active = well fitted cell-killing curve with a large enough effect in the repeat runs; inconclusive = weak or mixed curves; inactive = flat fitted curve, though single readings scatter.
quantity: outcome

compound=O=S(=O)(c1ccc(Cl)cc1)c1ccc(Cl)cc1 endpoint_value=inactive
compound="C=CCC1=C(C)C(OC(=O)C2C(C=C(C)C)C2(C)C)CC1=O (stereo not given)" endpoint_value=inactive
compound="O=C1NCN(c2ccccc2)C12CCN(CC1COc3ccccc3O1)CC2 (stereo not given)" endpoint_value=inactive
compound=ClC1=C(Cl)[C@]2(Cl)[C@@H]3[C@@H]4C[C@@H]([C@H]5O[C@@H]45)[C@@H]3[C@@]1(Cl)C2(Cl)Cl endpoint_value=inactive
compound=O=C(O)COc1nc(Cl)c(Cl)cc1Cl endpoint_value=inactive
compound=O=[N+]([O-])c1c2ccccc2cc2ccccc12 endpoint_value=inactive
compound=Nc1ccc(Sc2ccc(N)cc2)cc1 endpoint_value=inactive
compound=CCOCCOC(C)=O endpoint_value=inactive
compound="CCOP(=O)(NC(C)C)Oc1ccc(SC)c(C)c1 (stereo not given)" endpoint_value=inactive
compound=O=C(CCCN1CCC2(CC1)C(=O)NCN2c1ccccc1)c1ccc(F)cc1 endpoint_value=inactive

Where these numbers come from: PubChem BioAssay (Tox21)
